# PROCEDURE_TEXT: Plasma pharmacokinetics
# ASSAY_CONDITIONS: human, in vivo, 12 mg, Cmax
RECORDED_METRIC: Cmax

>>> print(df.to_string())
                        structure_as_smiles  test_result
0  COc1cc2nccc(Oc3ccc(NC(=O)NC4CC4)c(Cl)c3)c2cc1C(N)=O    232 ng/mL

* * *

# PROCEDURE_TEXT: Plasma pharmacokinetics
# ASSAY_CONDITIONS: human, in vivo, 12 mg, AUC0-6
RECORDED_METRIC: AUC(0-t) (ng·h/mL)

In [3]: df
Out[3]:
                        structure_as_smiles  test_result
0  COc1cc2nccc(Oc3ccc(NC(=O)NC4CC4)c(Cl)c3)c2cc1C(N)=O          913

* * *

# PROCEDURE_TEXT: Plasma pharmacokinetics
# ASSAY_CONDITIONS: human, in vivo, 8 mg, Cmax
RECORDED_METRIC: Cmax (ng/mL)

>>> df
                        structure_as_smiles  test_result
0  COc1cc2nccc(Oc3ccc(NC(=O)NC4CC4)c(Cl)c3)c2cc1C(N)=O          177

* * *

# PROCEDURE_TEXT: Plasma pharmacokinetics
# ASSAY_CONDITIONS: human, in vivo, 16 mg, AUC0-6
RECORDED_METRIC: AUC(0-t)

                        structure_as_smiles   test_result
0  COc1cc2nccc(Oc3ccc(NC(=O)NC4CC4)c(Cl)c3)c2cc1C(N)=O  1510 ng·h/mL

* * *

# PROCEDURE_TEXT: Plasma pharmacokinetics
# ASSAY_CONDITIONS: human, in vivo, 8 mg, AUC0-24
RECORDED_METRIC: AUC(0-t) (ng·h/mL)

                                   compound  recorded_metric  test_result
0  COc1cc2nccc(Oc3ccc(NC(=O)NC4CC4)c(Cl)c3)c2cc1C(N)=O [lenvatinib]         AUC(0-t)         1300

* * *

# PROCEDURE_TEXT: Plasma pharmacokinetics
# ASSAY_CONDITIONS: human, in vivo, 12 mg
RECORDED_METRIC: Tmax (h)

                        structure_as_smiles  uom  test_result
0  COc1cc2nccc(Oc3ccc(NC(=O)NC4CC4)c(Cl)c3)c2cc1C(N)=O    h          1.5
